MEASURED_TARGET: mGlyT-1b (Mus musculus, UniProt P28571)
Construct: host or cells: Flp-in-CHO
Sequence (P28571 1-651 isoform P28571-2): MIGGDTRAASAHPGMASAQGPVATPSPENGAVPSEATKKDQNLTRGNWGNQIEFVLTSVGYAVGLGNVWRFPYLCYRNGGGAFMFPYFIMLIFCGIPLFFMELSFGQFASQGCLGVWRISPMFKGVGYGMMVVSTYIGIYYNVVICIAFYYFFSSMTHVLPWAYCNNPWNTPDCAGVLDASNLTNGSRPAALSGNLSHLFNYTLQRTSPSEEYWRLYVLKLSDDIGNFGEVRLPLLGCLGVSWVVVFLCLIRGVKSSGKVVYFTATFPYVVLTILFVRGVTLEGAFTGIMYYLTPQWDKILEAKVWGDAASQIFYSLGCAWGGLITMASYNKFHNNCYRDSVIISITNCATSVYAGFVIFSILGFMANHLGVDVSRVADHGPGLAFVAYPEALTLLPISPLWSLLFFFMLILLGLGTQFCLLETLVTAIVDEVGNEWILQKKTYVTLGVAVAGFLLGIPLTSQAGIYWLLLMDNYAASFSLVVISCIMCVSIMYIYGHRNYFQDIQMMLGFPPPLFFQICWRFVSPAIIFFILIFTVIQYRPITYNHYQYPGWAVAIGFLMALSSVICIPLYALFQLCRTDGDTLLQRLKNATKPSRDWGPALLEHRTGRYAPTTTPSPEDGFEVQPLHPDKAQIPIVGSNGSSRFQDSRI
EXPERIMENT: Glycine uptake inhibition assay (mGlyT-1b)
Format: cell-based
TEST_PARAMETERS: second-listed enantiomer; mouse value (before the slash); read-out: GlyT-1 Enant. Mouse/human
MEASURE_NAME: pIC50
Scale: pIC50 equals -log10([C]), with [C] in mol/L.

Item: O=C1NCC(c2ccc(F)cc2)C12CCN(C1(c3ccc(F)cc3)CCCCCC1)CC2 (racemic) [Example 50] Test system: mGlyT-1b (Mus musculus, UniProt P28571) Read-out: pIC50 Value: ?
6.82
